Just for reference, ChEMBL document CHEMBL1961873 is where these values come from.

Measured inhibition by item
- measured-target: ALK tyrosine kinase receptor (Homo sapiens) (UniProt Q9UM73)
- Sequence (Q9UM73 19-1620 limits assumed): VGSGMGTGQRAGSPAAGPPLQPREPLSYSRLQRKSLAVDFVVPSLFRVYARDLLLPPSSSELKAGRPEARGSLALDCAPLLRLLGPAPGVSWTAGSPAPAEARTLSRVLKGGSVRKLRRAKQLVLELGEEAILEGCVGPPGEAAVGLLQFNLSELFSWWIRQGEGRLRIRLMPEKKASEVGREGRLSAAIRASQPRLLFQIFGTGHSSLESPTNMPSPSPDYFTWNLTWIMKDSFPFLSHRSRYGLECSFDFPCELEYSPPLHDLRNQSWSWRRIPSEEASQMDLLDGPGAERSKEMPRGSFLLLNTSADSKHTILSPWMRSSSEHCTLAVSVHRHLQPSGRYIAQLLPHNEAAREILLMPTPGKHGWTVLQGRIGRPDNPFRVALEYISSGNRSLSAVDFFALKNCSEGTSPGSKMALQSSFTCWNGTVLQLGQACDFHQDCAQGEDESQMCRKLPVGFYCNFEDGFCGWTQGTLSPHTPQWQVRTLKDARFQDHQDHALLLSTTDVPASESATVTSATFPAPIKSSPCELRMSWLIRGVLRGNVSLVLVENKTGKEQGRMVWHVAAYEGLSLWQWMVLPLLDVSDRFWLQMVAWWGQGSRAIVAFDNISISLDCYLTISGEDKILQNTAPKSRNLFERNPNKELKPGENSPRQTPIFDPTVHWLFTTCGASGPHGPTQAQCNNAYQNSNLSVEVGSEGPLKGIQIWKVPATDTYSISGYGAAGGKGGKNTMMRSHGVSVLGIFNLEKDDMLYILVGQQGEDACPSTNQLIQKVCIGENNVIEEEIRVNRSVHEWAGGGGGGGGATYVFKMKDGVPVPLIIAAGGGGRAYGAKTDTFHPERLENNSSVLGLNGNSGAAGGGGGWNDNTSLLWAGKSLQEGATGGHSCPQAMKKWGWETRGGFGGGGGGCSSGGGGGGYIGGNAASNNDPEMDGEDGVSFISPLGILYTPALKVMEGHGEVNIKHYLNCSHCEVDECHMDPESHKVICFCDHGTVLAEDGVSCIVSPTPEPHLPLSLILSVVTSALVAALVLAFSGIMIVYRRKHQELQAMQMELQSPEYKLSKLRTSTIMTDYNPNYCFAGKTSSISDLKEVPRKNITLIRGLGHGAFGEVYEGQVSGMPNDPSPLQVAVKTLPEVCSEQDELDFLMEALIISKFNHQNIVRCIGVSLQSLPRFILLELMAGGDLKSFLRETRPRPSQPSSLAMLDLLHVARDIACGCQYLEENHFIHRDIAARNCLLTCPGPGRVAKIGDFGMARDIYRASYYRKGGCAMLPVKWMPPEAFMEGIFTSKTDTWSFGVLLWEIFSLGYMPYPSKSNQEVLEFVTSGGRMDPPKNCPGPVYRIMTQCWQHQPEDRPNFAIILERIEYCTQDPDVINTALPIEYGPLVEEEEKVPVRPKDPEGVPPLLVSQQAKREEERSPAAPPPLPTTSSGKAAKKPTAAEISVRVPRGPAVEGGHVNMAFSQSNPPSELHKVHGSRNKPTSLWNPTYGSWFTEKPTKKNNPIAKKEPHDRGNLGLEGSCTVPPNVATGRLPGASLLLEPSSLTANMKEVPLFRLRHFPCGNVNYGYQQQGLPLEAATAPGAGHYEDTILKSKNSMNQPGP
- measurement-parameters: at 0.1 µM
- Description: GSK_PKIS: ALK mean inhibition at 0.1 uM [Nanosyn]
// return numeric value only (unit: %, not printed)

Consider the following illustrative entries.
CCn1c(-c2nonc2N)nc2cncc(C(=O)N3CCNCC3)c21 | 3.59
COc1cc(C)c(NC(=O)CN(C)C)cc1Nc1nc(Nc2cccc(F)c2C(N)=O)c2cc[nH]c2n1 | 97.8
CCn1c(-c2nonc2N)nc2cncc(C(=O)N3CC[C@H](N)C3)c21 | 3.95

Let's switch to this compound now.
Tell me the measured inhibition of `COc1ccc(-c2ccncc2)cc1C(N)=O` , please.
3.85
